The values you see were collected from patent US12612412B2.

# Tested on: HMPV clinical isolate TN/1501/A1
# protocolNotes: HMPV antiviral assay Method-B (clinical isolate TN/1501/A1 in LLC-MK2 cells, ATP-Lite readout)
# Format: cell-based, Human metapneumovirus (HMPV)
# conditions: human metapneumovirus, LLC-MK2, 144 h, hMPV WT1501 (clinical isolate TN/1501/A1), 6 days
EC50: recorded values

itemsmiles=COc1ccc(C(=O)NC[C@](O)(c2cc3c(c(-c4ccc5c(c4)OC(F)(F)O5)n2)OC[C@]3(C)C(N)=O)C(F)(F)F)n2ccnc12 endpointresult="> 500 nM"
itemsmiles=COc1cc(C(=O)NC[C@](O)(c2cc3c(c(-c4cc(F)c(F)c(Cl)c4)n2)OC[C@]3(C)C(N)=O)C2CC2)cc2cn(C3(F)CC3)nc12 endpointresult="< 500 nM"

Next up:
What measured EC50 goes with COc1cc(C(=O)NC[C@](O)(c2cc3c(c(-c4cccc(Br)c4F)n2)OC[C@]3(C)C(N)=O)C2CC2)cc2cc(Cl)c(C)nc12 ?
< 500 nM
